- System: BV-2
- assay.comment: Antineuroinflammatory activity in mouse BV2 cells assessed as inhibition of LPS-induced nitric oxide production measured after 24 hrs by Griess assay
- Format: functional, cell-based
- condition.label: BV-2, 24 h
readout.label: pIC50
pIC50 here: minus log base 10 of the concentration, concentration in moles per litre.

Ask: Recorded pIC50 of COc1cc(/C=C/C(=O)O[C@H]2CC(=O)[C@]3(C)[C@H]4CC[C@]5(C)C(=CC[C@@]6(C(=O)O)CCC(C)(C)C[C@H]65)[C@]4(C)CC[C@H]3C2(C)C)ccc1O , please.
Result: 4.82

Ask: Recorded pIC50 of CC1(C)CC[C@]2(C(=O)O)CC=C3[C@]4(C)CC[C@H]5C(C)(C)[C@@H](OC(=O)/C=C/c6ccc(O)cc6)CC(=O)[C@]5(C)[C@H]4CC[C@@]3(C)[C@@H]2C1 , please.
Result: 4.85

Ask: Recorded pIC50 of O=c1ccc2cc3c(cc2o1)O[C@@H](c1ccc(O)c(O)c1)[C@H](CO)O3 , please.
Result: 5.14

----------
- Test system: BV-2
- assay.comment: Cytotoxicity against mouse BV2 cells assessed as reduction in cell viability at 1 to 100 uM after 24 hrs by MTT assay
- Type: cell-based
- condition.label: bv-2, 24 h
readout.label: Activity

CC(=O)O[C@H]1CC(=O)[C@]2(C)[C@H]3CC[C@]4(C)C(=CC[C@@]5(C(=O)O)CCC(C)(C)C[C@H]54)[C@]3(C)CC[C@H]2C1(C)C ... Non-Toxic
CC1(C)CC[C@]2(C(=O)O)CC=C3[C@]4(C)CC[C@H]5C(C)(C)[C@@H](OC(=O)/C=C/c6ccc(O)cc6)C[C@H](O)[C@]5(C)[C@H]4CC[C@@]3(C)[C@@H]2C1 ... Non-Toxic
COc1c2c(cc3ccc(=O)oc13)O[C@H](c1ccc(O)c(O)c1)[C@@H](CO)O2 ... Non-Toxic

----------
- System: BV-2
- assay.comment: Cytotoxicity against mouse BV2 cells assessed as reduction in cell viability at 1 to 100 uM after 24 hrs by MTT assay
- Format: cell-based
- condition.label: bv-2, 24 h
readout.label: Activity

CC1(COC(=O)/C=C\c2ccc(O)cc2)CC[C@]2(C(=O)O)CC=C3[C@]4(C)CC[C@H]5C(C)(C)C(=O)C=C[C@]5(C)[C@H]4CC[C@@]3(C)[C@@H]2C1 (stereo partly drawn) ... Non-Toxic
CC1(C)CC[C@]2(C(=O)O)CC=C3[C@]4(C)CC[C@H]5C(C)(C)[C@@H](O)CC(=O)[C@]5(C)[C@H]4CC[C@@]3(C)[C@@H]2C1 ... Non-Toxic
CC1(C)CC[C@]2(C(=O)O)CC=C3[C@]4(C)CC[C@H]5C(C)(C)C(=O)CC[C@]5(C)[C@H]4CC[C@@]3(C)[C@@H]2C1 ... Non-Toxic

----------
- Tested on: BV-2
- assay.comment: Antineuroinflammatory activity in mouse BV2 cells assessed as inhibition of LPS-induced nitric oxide production measured after 24 hrs by Griess assay
- Assay type: functional, cell-based
- condition.label: BV-2, 24 h
pIC50: −log10 of the molar value.
readout.label: pIC50

Reference set, count: 5
O=c1ccc2cc3c(cc2o1)O[C@@H](CO)[C@H](c1ccc(O)c(O)c1)O3 ... < 4.30
CC(=O)O[C@H]1CC[C@]2(C)[C@H]3CC[C@]4(C)C(=CC[C@@]5(C(=O)O)CCC(C)(C)C[C@H]54)[C@]3(C)CC[C@H]2C1(C)C ... < 4.30
CC(=O)O[C@H]1CC(=O)[C@]2(C)[C@H]3CC[C@]4(C)C(=CC[C@@]5(C(=O)O)CCC(C)(C)C[C@H]54)[C@]3(C)CC[C@H]2C1(C)C ... < 4.30
O=c1ccc2cc3c(cc2o1)O[C@H](CO)[C@@H](c1ccc(O)c(O)c1)O3 ... 5.24
CC1(C)CC[C@]2(C(=O)O)CC=C3[C@]4(C)CC[C@H]5C(C)(C)[C@@H](O)CC(=O)[C@]5(C)[C@H]4CC[C@@]3(C)[C@@H]2C1 ... < 4.30

From here, focus on the item given below.
Ask: Recorded pIC50 of CC1(C)CC[C@]2(C(=O)O)CC=C3[C@]4(C)CC[C@H]5C(C)(C)[C@@H](O)CC[C@]5(C)[C@H]4CC[C@@]3(C)[C@@H]2C1 , please.
Result: < 4.30

The reported numbers originate from ChEMBL document CHEMBL4196247.
